test readout: melting point (°C)
The figure you give is taken to be in °C; do not add the unit.

Sample records with melting point:
molecule	melting point [°C]
CN1CCC(OC(c2ccc(Cl)cc2)c2cc(OC(F)(F)F)ccc2F)CC1.O=C(O)C(=O)O (centres unmarked)	117
Cc1ccc(C(OC2CCN(C)CC2)c2cc(C(F)(F)F)ccn2)c(F)c1.O=C(O)C(=O)O (centres unmarked)	104
CN1CCC(OC(c2ccc(Cl)cn2)c2ccc(F)cc2O)CC1 (centres unmarked)	57
CCOC(=O)NCCCCC#Cc1cccc(C(OC2CCN(C)CC2)c2ccccn2)c1.O=C(O)C(=O)O (centres unmarked)	77
CN1CCC(OC(c2ccc(Cl)c(Cl)c2)c2cc(OC(F)(F)F)ccc2F)CC1.O=C(O)C(=O)O (centres unmarked)	115

Bench note: what melting point did CN1CCC(OC(c2ccc(F)cn2)c2ccc(F)c(F)c2O)CC1 (centres unmarked) show?
73

Field request: melting point | item: Cc1ccc(C(OC2CCN(C)CC2)c2ccc(Cl)cn2)c(F)c1.O=C(O)C(=O)O (centres unmarked)
165

Which melting point reading was recorded for the molecule Cc1ccc(C(OC2CCN(C)CC2)c2ccc(Cl)c(Cl)c2)c(F)c1.O=C(O)C(=O)O (centres unmarked) ?
140

What does the data say about its melting point? Entry: Cc1ccc(C(OC2CCN(C)CC2)c2ccc(Cl)cc2)c(F)c1.O=C(O)C(=O)O (centres unmarked)
165

Given the molecule CN1CCC(OC(c2ccc(F)cn2)c2cc(OC(F)(F)F)ccc2F)CC1.O=C(O)C(=O)O (centres unmarked) , what is its reported melting point?
113

Could you tell me which melting point is on file for Cc1ccc(C(OC2CCN(C)CC2)c2ccc(Cl)cn2)c(O)c1.O=C(O)C(=O)O (centres unmarked) ?
77

Which melting point reading was recorded for the molecule Cc1ccnc(C(OC2CCN(C)CC2)c2ccc(C)cc2F)c1.O=C(O)C(=O)O.O=C(O)C(=O)O (centres unmarked) ?
52

Need melting point of Cc1ccc(C(OC2CCN(C)CC2)c2cc(F)ccn2)c(O)c1F (centres unmarked) , thanks.
64

Request the reported melting point associated with Cc1ccc(C(OC2CCN(C)CC2)c2cccc(I)c2)cc1.O=C(O)C(=O)O (centres unmarked)
60

###

Counter-ions that a name gives are not always drawn.
Recorded measurements of melting point, one per entry
Express the result in °C but write the number alone.

Completed entries (count: 8):
compound	numeric result
CN1CCC(OC(c2cccc(C#CCCCCN)c2)c2ccc(Cl)cn2)CC1.O=C(O)C(=O)O (centres unmarked) [Example 18]	136
Cc1ccc(C(OC2CCN(C)CC2)c2ccc(F)cn2)c(O)c1.O=C(O)C(=O)O (centres unmarked) [Example 24]	77
COc1cccc(C(OC2CCN(C)CC2)c2ccc(Cl)cn2)c1.O=C(O)C(=O)O (centres unmarked) [Example 12]	175
CN1CCC(OC(c2ccccn2)c2ccccc2O)CC1 (centres unmarked) (as salt: oxalate) [Example 19]	70
Cc1ccc(C(OC2CCN(C)CC2)c2ccc(F)cn2)c(O)c1F (centres unmarked) [Example 21]	62
CN1CCC(OC(c2ccc(Cl)cn2)c2cc(OC(F)(F)F)ccc2F)CC1.O=C(O)C(=O)O (centres unmarked) [Example 4]	75
Cc1ccc(C(OC2CCN(C)CC2)c2ccc(Cl)cn2)c(O)c1F (centres unmarked) [Example 22]	67
CN1CCC(OC(c2ccc(Cl)cn2)c2ccc(F)c(F)c2O)CC1 (centres unmarked) [Example 16]	68

For the compound shown here, CN1CCC(OC(c2ccc(F)cn2)c2ccc(F)cc2O)CC1.O=C(O)C(=O)O (centres unmarked) [Example 20] , give the reported melting point.
105

Need melting point of Cc1ccnc(C(OC2CCN(C)CC2)c2cc(OC(F)(F)F)ccc2F)c1.O=C(O)C(=O)O.O=C(O)C(=O)O (centres unmarked) [Example 8] , thanks.
43

Dear colleague, I am looking for the recorded melting point of the following compound: CN1CCC(OC(c2ccccc2F)c2cc(OC(F)(F)F)ccc2F)CC1.O=C(O)C(=O)O (centres unmarked) [Example 32]
116

Entry CN1CCC(OC(c2cccc(I)c2)c2ccc(Cl)cn2)CC1.O=C(O)C(=O)O (centres unmarked) [Example 13] has what melting point?
130

###

pIC50: −log10 of the molar value. Where a name gives a salt, the structure may show the parent alone.
So I've got pIC50 readings for human H4 receptor (Homo sapiens, UniProt Q9H3N8), take a look.

compound	assayed target	pIC50
Cc1ccc(C(OC2CCN(C)CC2)c2ccc(Cl)cn2)c(F)c1.O=C(O)C(=O)O (stereo not shown) [Example 2, oxalate]	human H4 receptor (Homo sapiens, UniProt Q9H3N8)	> 6.52

Query pIC50 on human H4 receptor (Homo sapiens, UniProt Q9H3N8) for CN1CCC(OC(c2ccc(Cl)c(Cl)c2)c2cc(OC(F)(F)F)ccc2F)CC1.O=C(O)C(=O)O (stereo not shown) [Example 31, oxalate]
Sequence (Q9H3N8 whole entry): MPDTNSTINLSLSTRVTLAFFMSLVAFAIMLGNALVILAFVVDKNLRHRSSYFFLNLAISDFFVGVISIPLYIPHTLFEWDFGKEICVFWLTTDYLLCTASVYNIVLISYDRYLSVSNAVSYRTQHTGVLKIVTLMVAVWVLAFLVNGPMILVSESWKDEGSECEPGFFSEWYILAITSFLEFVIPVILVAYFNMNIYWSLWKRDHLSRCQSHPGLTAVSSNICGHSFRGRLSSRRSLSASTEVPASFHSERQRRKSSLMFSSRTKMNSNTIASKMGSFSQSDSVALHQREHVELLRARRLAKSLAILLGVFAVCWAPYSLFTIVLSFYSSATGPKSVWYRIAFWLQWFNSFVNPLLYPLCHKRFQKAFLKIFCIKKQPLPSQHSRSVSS
> 6.52

Can you look up pIC50 on human H4 receptor (Homo sapiens, UniProt Q9H3N8) for CN1CCC(OC(c2cccc(C#CCCCCN)c2)c2ccccn2)CC1 (stereo not shown) [Example 5, oxalate] ?
> 6.52

Identify the measured pIC50 of CN1CCC(OC(c2ccccc2F)c2cc(OC(F)(F)F)ccc2F)CC1.O=C(O)C(=O)O (stereo not shown) [Example 32, oxalate] for human H4 receptor (Homo sapiens, UniProt Q9H3N8).
> 6.00

Recall the recorded pIC50 for Cc1ccc(C(OC2CCN(C)CC2)c2ccc3ccccc3c2)c(F)c1.O=C(O)C(=O)O (stereo not shown) [Example 29, oxalate] with human H4 receptor (Homo sapiens, UniProt Q9H3N8) and state it.
> 6.00

# value lookup — system human H4 receptor (Homo sapiens, UniProt Q9H3N8), readout pIC50, item CN1CCC(OC(c2ccc(Cl)cc2)c2cccc(C#CCCCCN)c2)CC1 (stereo not shown) [Example 36, dioxalate]
> 7.52

Recorded pIC50 for Cc1ccc(C(OC2CCN(C)CC2)c2ccc(Cl)c(Cl)c2)c(F)c1.O=C(O)C(=O)O (stereo not shown) [Example 30, oxalate] with human H4 receptor (Homo sapiens, UniProt Q9H3N8), please?
> 6.52

###

The following molecules have recorded pKi on human H4 receptor (Homo sapiens, UniProt Q9H3N8).
pKi: −log10 of the molar value.

Guide cases for pKi, answers given:
molecule	pKi
Cc1ccc(C(OC2CCN(C)CC2)c2ccc(Cl)cn2)c(F)c1.O=C(O)C(=O)O (centres unmarked) [Example 2, oxalate]	> 7.52
Cc1ccnc(C(OC2CCN(C)CC2)c2ccc(C)cc2F)c1.O=C(O)C(=O)O.O=C(O)C(=O)O (centres unmarked) [Example 7, dioxalate]	> 6.52
CN1CCC(OC(c2cccc(I)c2)c2ccc(Cl)cn2)CC1.O=C(O)C(=O)O (centres unmarked) [Example 13, oxalate]	> 6.52
CN1CCC(OC(c2ccc(Cl)cc2)c2cccc(I)c2)CC1.O=C(O)C(=O)O (centres unmarked) [Example 35, oxalate]	> 7.52
Cc1ccc(C(OC2CCN(C)CC2)c2ccc(F)cn2)c(F)c1.O=C(O)C(=O)O (centres unmarked) [Example 10, oxalate]	> 6.52
CN1CCC(OC(c2ccc(Cl)cc2)c2cc(OC(F)(F)F)ccc2F)CC1.O=C(O)C(=O)O (centres unmarked) [Example 33, oxalate]	> 6.52
CN1CCC(OC(c2ccc(Cl)cc2)c2cccc(C#CCCCCN)c2)CC1 (centres unmarked) [Example 36, dioxalate]	> 7.52
Cc1ccc(C(OC2CCN(C)CC2)c2cccc(I)c2)cc1.O=C(O)C(=O)O (centres unmarked) [Example 27, oxalate]	> 6.00

Report pKi for CN1CCC(OC(c2ccc(F)cn2)c2cc(OC(F)(F)F)ccc2F)CC1.O=C(O)C(=O)O (centres unmarked) [Example 11, oxalate] tested on human H4 receptor (Homo sapiens, UniProt Q9H3N8).
> 6.00

Request: pKi, test system human H4 receptor (Homo sapiens, UniProt Q9H3N8), entry Cc1ccc(C(OC2CCN(C)CC2)c2ccc(F)cn2)c(O)c1.O=C(O)C(=O)O (centres unmarked) [Example 24, oxalate]
> 7.52

Checklist item: pKi tested on human H4 receptor (Homo sapiens, UniProt Q9H3N8), entry Cc1ccc(C(OC2CCN(C)CC2)c2ccc(Cl)cc2)c(F)c1.O=C(O)C(=O)O (centres unmarked) [Example 34, oxalate] , value?
> 6.52

Reported pKi for human H4 receptor (Homo sapiens, UniProt Q9H3N8), given CN1CCC(OC(c2ccc(Cl)cn2)c2ccc(F)c(F)c2O)CC1 (centres unmarked) [Example 16] ?
> 6.52

Form field: pKi recorded for CN1CCC(OC(c2ccc(F)cn2)c2ccc(F)cc2O)CC1.O=C(O)C(=O)O (centres unmarked) [Example 20, oxalate] with human H4 receptor (Homo sapiens, UniProt Q9H3N8) (enter value)
> 6.52

For the record Cc1ccc(C(OC2CCN(C)CC2)c2ccccn2)c(F)c1.O=C(O)C(=O)O.O=C(O)C(=O)O (centres unmarked) [Example 3, dioxalate] , what value of pKi is listed for human H4 receptor (Homo sapiens, UniProt Q9H3N8)?
> 6.52

// lookup pKi | system=human H4 receptor (Homo sapiens, UniProt Q9H3N8) | key= Cc1ccc(C(OC2CCN(C)CC2)c2ccc(Cl)c(Cl)c2)c(F)c1.O=C(O)C(=O)O (centres unmarked) [Example 30, oxalate]
> 6.52
